Molecular target: recombinant human COMT (Homo sapiens, UniProt P21964)
Construct: GST (N, cleaved yes)
Sequence (P21964 with tags, fused parts or gaps): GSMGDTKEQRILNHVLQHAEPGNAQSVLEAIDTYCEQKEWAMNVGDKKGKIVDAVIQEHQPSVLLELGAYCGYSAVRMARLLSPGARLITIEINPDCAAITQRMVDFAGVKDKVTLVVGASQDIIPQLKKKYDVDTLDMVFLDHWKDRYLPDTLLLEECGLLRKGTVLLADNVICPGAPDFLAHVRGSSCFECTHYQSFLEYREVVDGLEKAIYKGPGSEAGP
Assay: Human COMT inhibitory potency
Conditions: catechol substrate, [3H]-S-adenosyl-L-methionine, 37° C. 30 minutes
Labels assigned by IC50 range: lower band = under 8 nM, central band = from 8 nM up to 9 nM, upper band = 9 nM and over

Below, 5 molecules whose answers are already recorded.
Cc1nc(-c2cc(O)c(O)c([N+](=O)[O-])c2C(=O)c2ccccc2)no1 [Compound 1-1]	upper band
COCc1nc(-c2cc(O)c(O)c([N+](=O)[O-])c2C(=O)OC)no1 [Compound 1-9]	lower band
Cc1nc(-c2cc(O)c(O)c([N+](=O)[O-])c2C(=O)c2ccno2)no1 [Compound 1-24]	lower band
Cc1nc(-c2cc(O)c(O)c([N+](=O)[O-])c2C(=O)C2CCCCC2)no1 [Compound 1-20]	central band
Cc1noc(-c2cc(O)c(O)c([N+](=O)[O-])c2)n1 [Comparative example 1, reference compound]	upper band

// bin(item) where item = Cc1nc(-c2cc(O)c(O)c([N+](=O)[O-])c2C(=O)c2ccccc2F)no1 [Compound 1-22] central band

// bin(item) where item = COC(=O)c1c(-c2noc(C)n2)cc(O)c(O)c1[N+](=O)[O-] [Compound 1-5] upper band

// bin(item) where item = CCOCCc1nc(-c2cc(O)c(O)c([N+](=O)[O-])c2C(C)=O)no1 [Compound 1-37] lower band

// bin(item) where item = Cc1nc(-c2cc(O)c(O)c([N+](=O)[O-])c2C(=O)C(=O)N(C)C2CCCCC2)no1 [Compound 1-41] lower band

Reference for the values: patent US7923462B2
